# target_of_assay: T1, human β-factor XIIa (human), P00748
# T1 chain 1: NGPLSCGQR
# T1 chain 2: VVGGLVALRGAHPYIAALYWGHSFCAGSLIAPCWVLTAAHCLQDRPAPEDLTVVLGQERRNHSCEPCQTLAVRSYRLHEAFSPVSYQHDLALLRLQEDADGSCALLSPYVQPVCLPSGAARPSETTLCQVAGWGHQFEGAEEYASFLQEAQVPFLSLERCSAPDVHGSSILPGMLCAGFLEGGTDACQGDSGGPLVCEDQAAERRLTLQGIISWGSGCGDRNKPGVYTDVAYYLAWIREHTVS
# run_description: mRNA display affinity selection on bead-immobilised biotinylated human β-FXIIa, NGS; share of the sequence in the recovered library; peptide displayed as acyclic mRNA fusion
parameter: Population (%)
Note: unit % is implicit; provide only the numeric part.

Known results for binders:
1. DGGVCPRVGWRCRRDSDCPGACICYPTKWCGSGS (modifications not checked) [MCoFx4 acyclic]
2.3
2. DGGRCPRLLRWCRRDSDCPGACICARGGLCGSGS (modifications not checked) [MCoFx3 acyclic]
2.3
3. DGGRCCGGYLVCRRDSDCPGACICVFKKHCGSGS (modifications not checked) [MCoFx5 acyclic]
0.8

Now take the following binder into account.
The recorded Population (%) for entry DGGICPRILVYCRRDSDCPGACICIRRTYCGSGS (modifications not checked) [MCoFx2 acyclic] equals 19.8
